# system.tested: full-length beta-Catenin (Uniprot ID P35222) (Homo sapiens, UniProt P35222)
# Construct: 10 nM full-length beta-Catenin (Uniprot ID P35222)
# Sequence (P35222 1-781): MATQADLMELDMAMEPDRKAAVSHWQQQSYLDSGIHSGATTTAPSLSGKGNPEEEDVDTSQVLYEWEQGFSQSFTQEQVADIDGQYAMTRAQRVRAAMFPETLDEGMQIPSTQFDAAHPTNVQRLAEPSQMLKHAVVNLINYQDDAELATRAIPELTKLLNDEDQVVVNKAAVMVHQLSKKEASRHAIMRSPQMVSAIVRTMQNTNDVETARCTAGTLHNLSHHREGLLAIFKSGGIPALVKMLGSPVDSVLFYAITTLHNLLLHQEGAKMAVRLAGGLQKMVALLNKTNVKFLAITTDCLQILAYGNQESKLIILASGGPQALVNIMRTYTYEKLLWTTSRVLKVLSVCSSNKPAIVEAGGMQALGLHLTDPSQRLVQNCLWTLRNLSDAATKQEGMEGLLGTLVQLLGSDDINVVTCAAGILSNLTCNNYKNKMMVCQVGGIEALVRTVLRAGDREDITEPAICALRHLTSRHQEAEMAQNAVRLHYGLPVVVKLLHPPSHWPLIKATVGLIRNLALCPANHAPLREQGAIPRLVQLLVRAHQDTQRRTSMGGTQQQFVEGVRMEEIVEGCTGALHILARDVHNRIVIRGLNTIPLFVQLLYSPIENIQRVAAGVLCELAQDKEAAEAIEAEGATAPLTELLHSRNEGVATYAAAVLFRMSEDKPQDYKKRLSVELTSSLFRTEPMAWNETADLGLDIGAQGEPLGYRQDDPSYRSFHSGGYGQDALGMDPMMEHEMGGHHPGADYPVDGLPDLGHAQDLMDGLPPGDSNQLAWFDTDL
# procedure.text: Fluorescence polarization IC50 (beta-catenin / 5FAM-TCF4 10-53 competition)
# Assay type: binding
# recorded.conditions: fluorescence polarization; read-out: beta-Catenin FP IC50
pIC50 values, listed per item
Please treat pIC50 as minus the base-10 logarithm of the molar concentration.

- compound: "CC(=O)N1CCC[C@]12CC=CCCCC1(CCCC=CCCCOC(=O)N3CC[C@@](C(=O)N[C@@H](Cc4ccsc4)C(=O)N[C@@H](Cc4csc5ccccc45)C(=O)N[C@@H](CCC(N)=O)C(N)=O)(C3)NC(=O)[C@H](CC(C)C)NC(=O)[C@H](Cn3cc(CN4CCOCC4)nn3)NC(=O)[C@H](C)NC(=O)[C@H](C)NC(=O)[C@H](CN(CC(=O)O)CC(F)(F)F)NC(=O)[C@H](CC(=O)O)NC1=O)NC(=O)[C@H](CC(C)(C)C)NC(=O)[C@H](CC(=O)O)NC2=O (some centres unmarked) [I-1859]"
  system.tested: "full-length beta-Catenin (Uniprot ID P35222) (Homo sapiens, UniProt P35222)"
  recorded.value: 5.96

Could you please provide reported pIC50 for CC(=O)N1CCC[C@]12CC=CCCCC1(CCCC=CCCCOC(=O)N3CC[C@@](C(=O)N[C@@H](Cc4ccccc4Cl)C(=O)N[C@@H](Cc4csc5ccccc45)C(=O)N[C@@H](CO)C(N)=O)(C3)NC(=O)[C@H](CC(C)C)NC(=O)[C@H](Cc3ccccc3)NC(=O)[C@H](C)NC(=O)[C@H](C)NC(=O)[C@H](Cc3ccc(F)c(C(=O)O)c3)NC(=O)[C@H](CC(=O)O)NC1=O)NC(=O)[C@H](CC(C)(C)C)NC(=O)[C@H](CC(=O)O)NC2=O (some centres unmarked) ? Thanks!
7.74

Give the measured pIC50 for CC(=O)N1CCC[C@]12CC=CCCCC1(CCCC=CCCCOC(=O)N3CC[C@@](C(=O)N[C@@H](Cc4ccccc4Cl)C(=O)N[C@@H](Cc4csc5ccccc45)C(=O)N[C@@H](CCC(N)=O)C(N)=O)(C3)NC(=O)[C@H](CC(N)=O)NC(=O)[C@H](Cc3ccccc3)NC(=O)[C@H](C)NC(=O)[C@H](C)NC(=O)[C@H](CN(CC(=O)O)Cc3c(F)c(F)c(F)c(F)c3F)NC(=O)[C@H](CC(=O)O)NC1=O)NC(=O)[C@H](CC(C)(C)C)NC(=O)[C@H](CC(=O)O)NC2=O (some centres unmarked) [I-1449]
7.80

Entry CC(=O)N1CCC[C@]12CC=CCCCC1(CCCC=CCCCOC(=O)N3CC[C@@](C(=O)N[C@@H](Cc4ccccc4Cl)C(=O)N[C@@H](Cc4csc5ccccc45)C(=O)N[C@@H](CCS(C)(=O)=O)C(N)=O)(C3)NC(=O)[C@H](CC(C)C)NC(=O)[C@H](Cc3ccccc3)NC(=O)[C@H](C)NC(=O)[C@H](C)NC(=O)[C@H](Cc3cccc(C(=O)O)c3)NC(=O)[C@H](CC(=O)O)NC1=O)NC(=O)[C@H](CC(C)(C)C)NC(=O)[C@H](CC(=O)O)NC2=O (some centres unmarked) needs its pIC50 filled in; supply it.
7.39

Given the compound CC(=O)N1CCC[C@]12CC=CCCCC1(CCCC=CCCCOC(=O)N3CC[C@@](C(=O)N[C@@H](Cc4ccccc4Cl)C(=O)N[C@@H](Cc4csc5ccccc45)C(=O)N[C@@H](CCCCNC(C)C)C(N)=O)(C3)NC(=O)[C@H]([C@@H](C)O)NC(=O)[C@H](Cc3ccccc3)NC(=O)[C@H](C)NC(=O)[C@H](C)NC(=O)[C@H](CN(CC(=O)O)CC(F)(F)F)NC(=O)[C@H](CC(=O)O)NC1=O)NC(=O)[C@H](CC(C)(C)C)NC(=O)[C@H](CC(=O)O)NC2=O (some centres unmarked) , write its reported pIC50.
8.05
